src = paper PMC10609273

- protocol_summary: Bidirectional permeability in Caco-2 cells
- Format: in vitro ADME
- study_conditions: human, Caco-2; 5 µM, alone
- Text: The Caco-2 cell culture and bidirectional permeability assays used in the study were adapted from previous studies at Takeda. […] All chemicals and reagents including control compounds were purchased from commercial sources such as Sigma-Aldrich or synthesized in house (pevonedistat and LY335979). […] The samples were placed into 96-well black plates (PerkinElmer Life Sciences, Boston, MA, USA) for fluorescence measurement (excitation at 450 nm and emission at 535 nm). […]
Assign satisfied whenever Papp B→A at 60 min, 5 µM does not fall below 40 ×10⁻⁶ cm/s; assign not satisfied whenever it does.

API: above_or_equal(metric=Papp B→A at 60 min, 5 µM, cutoff=40 ×10⁻⁶ cm/s) for item Nc1cc(N2CCCCC2)nc(N)[n+]1[O-] [Minoxidil, reference compound] not satisfied

API: above_or_equal(metric=Papp B→A at 60 min, 5 µM, cutoff=40 ×10⁻⁶ cm/s) for item CC(C)(C)NCC(O)COc1cccc2c1CC(O)C(O)C2 (centres unmarked) [Nadolol, reference compound] not satisfied

API: above_or_equal(metric=Papp B→A at 60 min, 5 µM, cutoff=40 ×10⁻⁶ cm/s) for item O=C(CCCCCCCn1cc(CCCF)nn1)N1[C@@H]2[C@H](O)[C@@H](O)[C@@H](O)[C@@H](CO)[C@@H]21 [AGAL] not satisfied

API: above_or_equal(metric=Papp B→A at 60 min, 5 µM, cutoff=40 ×10⁻⁶ cm/s) for item CC(C)NCC(O)COc1cccc2ccccc12 (centres unmarked) [Propranolol, reference compound] satisfied

API: above_or_equal(metric=Papp B→A at 60 min, 5 µM, cutoff=40 ×10⁻⁶ cm/s) for item NS(=O)(=O)OC[C@@H]1C[C@@H](n2ccc3c(N[C@H]4CCc5ccccc54)ncnc32)C[C@@H]1O [Pevonedistat, reference compound] satisfied
